These data points were gathered from BindingDB's records for patent US20240018157.

pIC50 reference
target-or-system: Mucosa-associated lymphoid tissue lymphoma translocation protein 1 (Homo sapiens)
Sequence (Q9UDY8 whole entry): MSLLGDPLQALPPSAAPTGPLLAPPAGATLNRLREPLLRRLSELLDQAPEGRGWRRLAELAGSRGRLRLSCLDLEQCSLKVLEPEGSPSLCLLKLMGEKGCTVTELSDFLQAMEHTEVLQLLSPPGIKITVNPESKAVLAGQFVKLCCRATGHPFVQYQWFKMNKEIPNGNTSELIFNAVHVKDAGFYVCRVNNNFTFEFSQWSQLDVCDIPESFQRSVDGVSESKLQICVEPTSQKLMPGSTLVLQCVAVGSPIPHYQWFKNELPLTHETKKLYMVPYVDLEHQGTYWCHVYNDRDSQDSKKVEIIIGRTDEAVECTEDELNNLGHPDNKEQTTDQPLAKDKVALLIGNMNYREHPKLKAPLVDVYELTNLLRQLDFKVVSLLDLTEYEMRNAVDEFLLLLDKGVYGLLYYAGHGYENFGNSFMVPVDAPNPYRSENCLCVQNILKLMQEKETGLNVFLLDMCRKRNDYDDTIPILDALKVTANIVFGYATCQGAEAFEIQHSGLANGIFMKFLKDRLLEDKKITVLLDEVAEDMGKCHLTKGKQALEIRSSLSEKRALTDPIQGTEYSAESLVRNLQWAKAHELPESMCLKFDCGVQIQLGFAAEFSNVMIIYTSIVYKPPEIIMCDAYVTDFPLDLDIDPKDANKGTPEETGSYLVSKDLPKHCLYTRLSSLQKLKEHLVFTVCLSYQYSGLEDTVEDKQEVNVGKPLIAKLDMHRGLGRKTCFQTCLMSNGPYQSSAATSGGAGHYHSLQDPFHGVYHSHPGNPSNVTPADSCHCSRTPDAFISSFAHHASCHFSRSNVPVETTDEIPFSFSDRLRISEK
experimental-protocol: MALT1 Protease Assay 2
pIC50: −log10 of the molar value.
outcome-measure: pIC50

[[record]]
molecule = "C[C@@]1(C(F)(F)F)CN(C(=O)Nc2cnnc(C(F)F)c2)c2cnc3c(F)c(F)nn3c21"
reading = "7.00 to 8.00"

[[record]]
molecule = "C[C@@]1(C(F)(F)F)CN(C(=O)Nc2cc(O[C@H]3CCNC3)nc(C(F)(F)F)c2)c2cnc3cc(Cl)nn3c21"
reading = "7.00 to 8.00"

[[record]]
molecule = "COc1cnn(-c2ncc(NC(=O)N3C[C@@](C)(C(F)(F)F)c4c3cnc3cc(Cl)nn43)cc2Cl)n1"
reading = "> 8.00"

[[record]]
molecule = "CN1CC(n2nc(NC(=O)N3C[C@@](C)(C(F)(F)F)c4c3cnc3cc(Cl)nn43)cc2Cl)C1"
reading = "< 6.00"

[[record]]
molecule = "C[C@@]1(C(F)(F)F)CN(C(=O)N[C@@H]2CCCC(F)(F)C2)c2cnc3cc(Cl)nn3c21"
reading = "6.00 to 7.00"

[[record]]
molecule = "CNc1cc(NC(=O)N2C[C@@](C)(C(F)(F)F)c3c2cnc2cc(Cl)nn32)ncc1-n1nccn1"
reading = "< 6.00"

[[record]]
molecule = "C[C@]1(C(F)(F)F)CN(C(=O)Nc2cnnc(C(F)F)c2)c2cnc3cc(CC(F)F)nn3c21"
reading = "6.00 to 7.00"

[[record]]
molecule = "C[C@@]1(C(F)(F)F)CN(C(=O)Nc2cnnc(C(F)F)c2)c2cnc3cc(CC(F)(F)F)nn3c21"
reading = "< 6.00"

[[record]]
molecule = "CCc1cc2ncc3c(n2n1)[C@@](C)(C(F)(F)F)CN3C(=O)Nc1cnnc(C(F)F)c1"
reading = "< 6.00"

[[record]]
molecule = "C[C@H](O)c1cnnn1-c1ncc(NC(=O)N2C[C@@](C)(C(F)(F)F)c3c2cnc2cc(Cl)nn32)cc1C(F)F"
reading = "7.00 to 8.00"

[[record]]
molecule = "C[C@@]1(C(F)(F)F)CN(C(=O)Nc2cnc(-n3ncc(CO)n3)c(Cl)c2)c2cnc3cc(Cl)nn3c21"
reading = "> 8.00"

[[record]]
molecule = "Cc1cc(NC(=O)N2C[C@@](C)(C(F)(F)F)c3c2cnc2cc(F)nn32)cnc1-n1nccn1"
reading = "> 8.00"

[[record]]
molecule = "CC(O)c1cnn(-c2ncc(NC(=O)N3C[C@@](C)(C(F)(F)F)c4c3cnc3cc(F)nn43)cc2C(F)F)n1 (stereo partly drawn)"
reading = "> 8.00"


* * *

target-or-system: Mucosa-associated lymphoid tissue lymphoma translocation protein 1 (Homo sapiens)
experimental-protocol: MALT1 Protease Assay 2
IC50 reference
outcome-measure: IC50

[[record]]
given_smiles = "C[C@@]1(C(F)(F)F)CN(C(=O)N[C@@H]2CCC(F)(F)C2)c2cnc3cc(Cl)nn3c21"
target_or_system = "Mucosa-associated lymphoid tissue lymphoma translocation protein 1 (Homo sapiens)"
reading = "> 1000 nM"

[[record]]
given_smiles = "C[C@@]1(C(F)(F)F)CN(C(=O)Nc2cnnc(C(F)F)c2)c2cnc3cc(F)nn3c21"
target_or_system = "Mucosa-associated lymphoid tissue lymphoma translocation protein 1 (Homo sapiens)"
reading = "> 1000 nM"

[[record]]
given_smiles = "C[C@H](O)c1cc(NC(=O)N2C[C@@](C)(C(F)(F)F)c3c2cnc2cc(Cl)nn32)cc(C(F)(F)F)n1"
target_or_system = "Mucosa-associated lymphoid tissue lymphoma translocation protein 1 (Homo sapiens)"
reading = "10 to 100 nM"

